# method description: Drug concentration in mouse heart at 30 mg/kg, po measured at 24 hrs
# Assay type: ADME, organism-based
# assay setup: read-out: Ct
value type: concentration at 24 h (ng/g)
Write the number in ng/g without appending the unit.

Ask: What value of concentration at 24 h has been reported for the following molecule? N[C@@H]1[C@H]2CN(c3cnc(C(=O)Nc4cc(F)cc5cccnc45)cn3)C[C@@H]12
Result: 57

* * *

# method description: Volume of distribution at steady state in CD-1 mouse at 15 mg/kg, iv measured up to 24 hrs by LC-MS/MS analysis
# Format: ADME, organism-based
# assay setup: in vivo, read-out: Vdss
value type: Vd (L/kg)
Write the number in L/kg without appending the unit.

>>> val("N[C@@H]1[C@H]2CN(c3cnc(C(=O)Nc4cc(F)cc5cccnc45)cn3)C[C@@H]12")
14.6

Continue with the compound presented below.
Ask: What value of Vd has been reported for the following compound? C[C@@H]1OCC2(CCN(c3cnc(C(=O)Nc4cc(F)cc5cccnc45)cn3)CC2)[C@@H]1N
Result: 7.1

* * *

# method description: Cmax in CD-1 mouse at 30 mg/kg, po measured up to 24 hrs by LC-MS/MS analysis
# Format: ADME, organism-based
# assay setup: in vivo
value type: Cmax
Include the unit after the number when you answer.

>>> val("N[C@@H]1[C@H]2CN(c3cnc(C(=O)Nc4cc(F)cc5cccnc45)cn3)C[C@@H]12")
"364 ng/mL"

Continue with the compound presented below.
Ask: What value of Cmax has been reported for the following compound? C[C@@H]1OCC2(CCN(c3cnc(C(=O)Nc4cc(F)cc5cccnc45)cn3)CC2)[C@@H]1N
Result: 1020 ng/mL

* * *

# method description: Drug concentration in mouse kidney at 30 mg/kg, po measured at 7 hrs
# Assay type: ADME, organism-based
# assay setup: read-out: Ct
value type: concentration at 7 h
Include the unit after the number when you answer.

Ask: What value of concentration at 7 h has been reported for the following molecule? N[C@@H]1[C@H]2CN(c3cnc(C(=O)Nc4cc(F)cc5cccnc45)cn3)C[C@@H]12
Result: 6100 ng/g

* * *

# Tested on: BXPC-3
# method description: Cytotoxicity against human BXPC-3 cells by MTT assay
# Assay type: functional, cell-based
value type: IC50 (nM)
Write the number in nM without appending the unit.

>>> val("CN(NC(=O)CC(=O)NN(C)C(=S)c1ccccc1)C(=S)c1ccccc1")
50

Ask: What value of IC50 has been reported for the following molecule? CCN(CC)C(=S)SSC(=S)N(CC)CC
Result: 300

Ask: And what about the molecule C[C@@H]1OCC2(CCN(c3cnc(C(=O)Nc4cc(F)cc5cccnc45)cn3)CC2)[C@@H]1N ?
Result: 8500

* * *

# method description: Metabolic stability in mouse liver microsome assessed as half life measured up to 60 mins by LC-MS/MS analysis
# Assay type: ADME
# assay setup: liver microsomes
This listing pairs compounds with measured half-life.
Write the number in min without appending the unit.

Completed entries (count: 3):
>>> val("Cc1cc(NC(=O)c2cnc(N3CCNCC3)cn2)c2ncccc2c1")
4
>>> val("O=C(Nc1cc(F)cc2cccnc12)c1cnc(N2CCNCC2)cn1")
1.8
>>> val("Cc1cc(NC(=O)c2cnc(N3CCC4(CC3)CO[C@@H](C)[C@H]4N)cn2)c2ncccc2c1")
11.7

Continue with the compound presented below.
Ask: What value of half-life has been reported for the following compound? CN1C2CCC1CN(c1cnc(C(=O)Nc3cc(F)cc4cccnc34)cn1)C2
Result: 13.5

* * *

# method description: AUC (0 to infinity) in CD-1 mouse at 30 mg/kg, po measured up to 24 hrs by LC-MS/MS analysis
# Format: ADME, organism-based
# assay setup: in vivo
value type: AUC(0-inf) (ng·h/mL)
Write the number in ng·h/mL without appending the unit.

>>> val("N[C@@H]1[C@H]2CN(c3cnc(C(=O)Nc4cc(F)cc5cccnc45)cn3)C[C@@H]12")
3810

Continue with the molecule presented below.
Ask: What value of AUC(0-inf) has been reported for the following molecule? C[C@@H]1OCC2(CCN(c3cnc(C(=O)Nc4cc(F)cc5cccnc45)cn3)CC2)[C@@H]1N
Result: 6800

* * *

# method description: Drug concentration in mouse heart at 30 mg/kg, po measured at 7 hrs
# Format: ADME, organism-based
# assay setup: read-out: Ct
value type: concentration at 7 h (ng/g)
Write the number in ng/g without appending the unit.

Ask: What value of concentration at 7 h has been reported for the following molecule? N[C@@H]1[C@H]2CN(c3cnc(C(=O)Nc4cc(F)cc5cccnc45)cn3)C[C@@H]12
Result: 1840

* * *

# method description: Drug concentration in mouse plasma at 30 mg/kg, po measured at 24 hrs
# Format: ADME, organism-based
value type: concentration at 24 h (ng/mL)
Write the number in ng/mL without appending the unit.

Ask: What value of concentration at 24 h has been reported for the following compound? N[C@@H]1[C@H]2CN(c3cnc(C(=O)Nc4cc(F)cc5cccnc45)cn3)C[C@@H]12
Result: 7

* * *

# method description: Drug concentration in mouse liver at 30 mg/kg, po measured at 24 hrs
# Type: ADME, organism-based
# assay setup: read-out: Ct
value type: concentration at 24 h
Include the unit after the number when you answer.

Ask: What value of concentration at 24 h has been reported for the following molecule? N[C@@H]1[C@H]2CN(c3cnc(C(=O)Nc4cc(F)cc5cccnc45)cn3)C[C@@H]12
Result: 92 ng/g

* * *

# method description: Clearance in CD-1 mouse at 15 mg/kg, iv measured up to 24 hrs by LC-MS/MS analysis
# Assay type: ADME, organism-based
# assay setup: in vivo
value type: clearance (mL/min/kg)
Write the number in mL/min/kg without appending the unit.

>>> val("N[C@@H]1[C@H]2CN(c3cnc(C(=O)Nc4cc(F)cc5cccnc45)cn3)C[C@@H]12")
72.5

Continue with the compound presented below.
Ask: What value of clearance has been reported for the following compound? C[C@@H]1OCC2(CCN(c3cnc(C(=O)Nc4cc(F)cc5cccnc45)cn3)CC2)[C@@H]1N
Result: 37.7

* * *

# System: MIA PaCa-2
# method description: Cytotoxicity against human MIA PaCa-2 cells by MTT assay
# Type: functional, cell-based
value type: IC50 (nM)
Write the number in nM without appending the unit.

Completed entries (count: 5):
>>> val("C=CC(=O)N1CCN(c2cnc(C(=O)Nc3cc(C)cc4cccnc34)cn2)CC1")
900
>>> val("N[C@H]1CN(c2cnc(C(=O)Nc3cc(F)cc4cccnc34)cn2)C[C@H]1F")
300
>>> val("CC1CNCCCN1c1cnc(C(=O)Nc2cc(F)cc3cccnc23)cn1 (stereo not given)")
1100
>>> val("CC1(C)CN(c2cnc(C(=O)Nc3cc(F)cc4cccnc34)cn2)CCN1")
300
>>> val("N[C@@H]1[C@H]2CN(c3cnc(C(=O)Nc4cc(F)cc5cccnc45)cn3)C[C@@H]12")
600

Ask: Give the reported IC50 for O=C(Nc1cc(F)cc2cccnc12)c1cnc(N2CCNC(F)C2)cn1 (stereo not given) (system: MIA PaCa-2).
Result: 3400

* * *

# method description: Metabolic stability in mouse liver microsome assessed as half life measured up to 60 mins by LC-MS/MS analysis
# Format: ADME
# assay setup: liver microsomes
This listing pairs compounds with measured half-life.
Write the number in min without appending the unit.

>>> val("C=CC(=O)N1CCN(c2cnc(C(=O)Nc3cc(C)cc4cccnc34)cn2)CC1")
3

Continue with the compound presented below.
Ask: What value of half-life has been reported for the following compound? CN1CC2CC1CN2c1cnc(C(=O)Nc2cc(F)cc3cccnc23)cn1 (stereo not given)
Result: 10.5

* * *

# method description: Drug concentration in mouse plasma at 15 mg/kg, iv measured at 7 hrs
# Type: ADME, organism-based
value type: concentration at 7 h

Ask: What value of concentration at 7 h has been reported for the following molecule? N[C@@H]1[C@H]2CN(c3cnc(C(=O)Nc4cc(F)cc5cccnc45)cn3)C[C@@H]12
Result: 98 ng/mL

* * *

# method description: Drug concentration in mouse heart at 15 mg/kg, iv measured at 7 hrs
# Assay type: ADME, organism-based
# assay setup: read-out: Ct
value type: concentration at 7 h (ng/g)
Write the number in ng/g without appending the unit.

Ask: What value of concentration at 7 h has been reported for the following compound? N[C@@H]1[C@H]2CN(c3cnc(C(=O)Nc4cc(F)cc5cccnc45)cn3)C[C@@H]12
Result: 882

* * *

# method description: Drug concentration in mouse kidney at 30 mg/kg, po measured at 24 hrs
# Assay type: ADME, organism-based
# assay setup: read-out: Ct
value type: concentration at 24 h (ng/g)
Write the number in ng/g without appending the unit.

Ask: What value of concentration at 24 h has been reported for the following compound? N[C@@H]1[C@H]2CN(c3cnc(C(=O)Nc4cc(F)cc5cccnc45)cn3)C[C@@H]12
Result: 137

Taken from ChEMBL document CHEMBL6109128.
